System: OVCAR-5 ovarian
Assay: NCI-60 one-dose screen, 48 h (100 = growth as untreated, 0 = no growth, -100 = all killed)
Settings: 10 µM unless noted
About 83,000 compounds went through this panel and 20% of them were active in at least one assay; those are over-represented in the sample as a whole. Activity calls are given as the source filed them. The calls were made as follows: active = growth percent below 10; inactive = the rest.
Reported values of growth for individual entries

compound=Cc1nc(N)[nH]c(=O)c1C result="98.3% (inactive)"
compound=CN(CC(=O)Nc1nc2ccccc2[nH]1)S(=O)(=O)c1ccc(Cl)cc1 result="96.4% (inactive)"
compound="COc1cc(/C=C2\\CCC/C(=C\\c3ccc(OCC4CO4)c(OC)c3)C2=O)ccc1OCC1CO1 (stereo unspecified)" result="86% (inactive)"

## Task GET /values?readout=growth&item= COc1cc2c(cc1OC)C1CCN3C(=O)CCC3N1CC2 (stereo unspecified)
## Result 109% (inactive)

## Task GET /values?readout=growth&item= `O=C(COC(=O)[C@H](C[Se][Se]C[C@H](NC(=O)c1ccc(Br)cc1F)C(=O)OCC(=O)c1ccc(F)cc1)NC(=O)c1ccc(Br)cc1F)c1ccc(F)cc1`
## Result -68.7% (active)

## Task GET /values?readout=growth&item= `O=C(/C=C/c1cc2ccccc2[nH]c1=O)c1ccc(O)cc1`
## Result 78.6% (inactive)

Provenance of the data: PubChem BioAssay (NCI)
